# system: Serine/threonine-protein kinase B-raf (Homo sapiens)
# Sequence (P15056 whole entry): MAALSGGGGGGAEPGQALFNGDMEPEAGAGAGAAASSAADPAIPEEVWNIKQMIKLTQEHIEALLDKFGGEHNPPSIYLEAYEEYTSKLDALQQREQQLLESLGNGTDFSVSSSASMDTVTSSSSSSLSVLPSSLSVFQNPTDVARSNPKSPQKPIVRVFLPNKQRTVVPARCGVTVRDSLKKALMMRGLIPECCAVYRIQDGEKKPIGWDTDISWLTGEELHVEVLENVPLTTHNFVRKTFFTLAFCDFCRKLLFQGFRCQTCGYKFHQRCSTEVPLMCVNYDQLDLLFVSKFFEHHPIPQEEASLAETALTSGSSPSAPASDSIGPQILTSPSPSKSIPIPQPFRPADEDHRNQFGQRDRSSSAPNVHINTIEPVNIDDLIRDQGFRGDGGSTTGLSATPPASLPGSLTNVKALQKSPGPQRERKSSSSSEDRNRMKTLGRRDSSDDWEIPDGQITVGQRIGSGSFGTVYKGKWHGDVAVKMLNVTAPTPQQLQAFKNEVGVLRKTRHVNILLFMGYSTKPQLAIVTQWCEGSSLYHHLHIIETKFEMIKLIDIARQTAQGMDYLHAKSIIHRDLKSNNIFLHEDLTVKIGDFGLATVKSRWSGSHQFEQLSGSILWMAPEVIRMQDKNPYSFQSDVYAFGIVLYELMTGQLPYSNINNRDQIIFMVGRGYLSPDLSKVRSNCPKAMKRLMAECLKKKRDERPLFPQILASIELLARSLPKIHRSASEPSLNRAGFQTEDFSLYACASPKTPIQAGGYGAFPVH
# assay method text: Binding affinity to recombinant human full-length wild type B-Raf (unknown origin) assessed as NEVGVLR accessible protease cleavage peptide level by LC-MS/MS analysis relative to control
Label scheme for Ratio: lower than 0.3 is Not met, 0.3 and above is Met.

Query block: Tell me whether Ratio is at least 0.3 here: CCN(C)S(=O)(=O)Nc1ccc(F)c(C(=O)c2c[nH]c3ncc(Cl)cc23)c1F
Result block: Met

Query block: How about this molecule: CCN(C)S(=O)(=O)Nc1ccc(F)c(C(=O)c2c[nH]c3ncc(-c4ccc(Cl)cc4)cc23)c1F
Result block: Not met

Query block: How about this molecule: Nc1ncnc2c1ncn2[C@@H]1O[C@H](COP(=O)(O)OP(=O)(O)O)[C@@H](O)[C@H]1O
Result block: Met

Query block: How about this molecule: Nc1ncnc2c1ncn2[C@@H]1O[C@H](COP(=O)(O)OP(=O)(O)NP(=O)(O)O)[C@@H](O)[C@H]1O
Result block: Met

Query block: How about this molecule: Nc1ncnc2c1ncn2[C@@H]1O[C@H](COP(=O)(O)OP(=O)(O)OP(=O)(O)O)[C@@H](O)[C@H]1O
Result block: Met
